Test system: Brucella neotomae
assay protocol: Antibacterial activity against Brucella neotomae 5K33 after 20 hrs by broth microdilution assay
Assay type: functional
measurement context: 5K33, 20 h
measurement name: MIC

molecule	MIC
CCN(CC)C(=S)SSC	> 32 µM
CCCCCCSSC(=S)N(CC)CC [DIETHYLCARBAMO(DITHIOPEROXO)THIOATE]	> 32 µM
CCN(CC)C(=S)SSC(=S)N(CC)CC	> 32 µM

Requested read-out: MIC. Entry: `CCCSSC(=S)N(CC)CC` > 32 µM

I have this molecule here, `CCCCCSSC(=S)N(CC)CC` , and I need its recorded MIC. 32 µM

Query: MIC; subject: `CCN(CC)C(=S)SSCc1ccccc1` 32 µM

Query: MIC; subject: `CCCCCCCCSSC(=S)N(CC)CC` > 32 µM

Give the measured MIC of `CCCCCCCSSC(=S)N(CC)CC` . > 32 µM
